Each entry below lists one item and its recorded Inactivated Block (shift in V0.5) value.
target: N-type calcium channel (α1B + α2 + β1b) (Rattus norvegicus, UniProt Q02294); construct: expressed in transfected cells; host or cells: HEK293 cells stably expressing, or HEK TSA 201 cells transiently transfected with, α1B + α2 + β1b; test: Inactivation of N-type calcium channels (steady state inactivation, shift in V0.5), whole cell patch clamp; format: cell-based
Sequence (Q02294 whole entry): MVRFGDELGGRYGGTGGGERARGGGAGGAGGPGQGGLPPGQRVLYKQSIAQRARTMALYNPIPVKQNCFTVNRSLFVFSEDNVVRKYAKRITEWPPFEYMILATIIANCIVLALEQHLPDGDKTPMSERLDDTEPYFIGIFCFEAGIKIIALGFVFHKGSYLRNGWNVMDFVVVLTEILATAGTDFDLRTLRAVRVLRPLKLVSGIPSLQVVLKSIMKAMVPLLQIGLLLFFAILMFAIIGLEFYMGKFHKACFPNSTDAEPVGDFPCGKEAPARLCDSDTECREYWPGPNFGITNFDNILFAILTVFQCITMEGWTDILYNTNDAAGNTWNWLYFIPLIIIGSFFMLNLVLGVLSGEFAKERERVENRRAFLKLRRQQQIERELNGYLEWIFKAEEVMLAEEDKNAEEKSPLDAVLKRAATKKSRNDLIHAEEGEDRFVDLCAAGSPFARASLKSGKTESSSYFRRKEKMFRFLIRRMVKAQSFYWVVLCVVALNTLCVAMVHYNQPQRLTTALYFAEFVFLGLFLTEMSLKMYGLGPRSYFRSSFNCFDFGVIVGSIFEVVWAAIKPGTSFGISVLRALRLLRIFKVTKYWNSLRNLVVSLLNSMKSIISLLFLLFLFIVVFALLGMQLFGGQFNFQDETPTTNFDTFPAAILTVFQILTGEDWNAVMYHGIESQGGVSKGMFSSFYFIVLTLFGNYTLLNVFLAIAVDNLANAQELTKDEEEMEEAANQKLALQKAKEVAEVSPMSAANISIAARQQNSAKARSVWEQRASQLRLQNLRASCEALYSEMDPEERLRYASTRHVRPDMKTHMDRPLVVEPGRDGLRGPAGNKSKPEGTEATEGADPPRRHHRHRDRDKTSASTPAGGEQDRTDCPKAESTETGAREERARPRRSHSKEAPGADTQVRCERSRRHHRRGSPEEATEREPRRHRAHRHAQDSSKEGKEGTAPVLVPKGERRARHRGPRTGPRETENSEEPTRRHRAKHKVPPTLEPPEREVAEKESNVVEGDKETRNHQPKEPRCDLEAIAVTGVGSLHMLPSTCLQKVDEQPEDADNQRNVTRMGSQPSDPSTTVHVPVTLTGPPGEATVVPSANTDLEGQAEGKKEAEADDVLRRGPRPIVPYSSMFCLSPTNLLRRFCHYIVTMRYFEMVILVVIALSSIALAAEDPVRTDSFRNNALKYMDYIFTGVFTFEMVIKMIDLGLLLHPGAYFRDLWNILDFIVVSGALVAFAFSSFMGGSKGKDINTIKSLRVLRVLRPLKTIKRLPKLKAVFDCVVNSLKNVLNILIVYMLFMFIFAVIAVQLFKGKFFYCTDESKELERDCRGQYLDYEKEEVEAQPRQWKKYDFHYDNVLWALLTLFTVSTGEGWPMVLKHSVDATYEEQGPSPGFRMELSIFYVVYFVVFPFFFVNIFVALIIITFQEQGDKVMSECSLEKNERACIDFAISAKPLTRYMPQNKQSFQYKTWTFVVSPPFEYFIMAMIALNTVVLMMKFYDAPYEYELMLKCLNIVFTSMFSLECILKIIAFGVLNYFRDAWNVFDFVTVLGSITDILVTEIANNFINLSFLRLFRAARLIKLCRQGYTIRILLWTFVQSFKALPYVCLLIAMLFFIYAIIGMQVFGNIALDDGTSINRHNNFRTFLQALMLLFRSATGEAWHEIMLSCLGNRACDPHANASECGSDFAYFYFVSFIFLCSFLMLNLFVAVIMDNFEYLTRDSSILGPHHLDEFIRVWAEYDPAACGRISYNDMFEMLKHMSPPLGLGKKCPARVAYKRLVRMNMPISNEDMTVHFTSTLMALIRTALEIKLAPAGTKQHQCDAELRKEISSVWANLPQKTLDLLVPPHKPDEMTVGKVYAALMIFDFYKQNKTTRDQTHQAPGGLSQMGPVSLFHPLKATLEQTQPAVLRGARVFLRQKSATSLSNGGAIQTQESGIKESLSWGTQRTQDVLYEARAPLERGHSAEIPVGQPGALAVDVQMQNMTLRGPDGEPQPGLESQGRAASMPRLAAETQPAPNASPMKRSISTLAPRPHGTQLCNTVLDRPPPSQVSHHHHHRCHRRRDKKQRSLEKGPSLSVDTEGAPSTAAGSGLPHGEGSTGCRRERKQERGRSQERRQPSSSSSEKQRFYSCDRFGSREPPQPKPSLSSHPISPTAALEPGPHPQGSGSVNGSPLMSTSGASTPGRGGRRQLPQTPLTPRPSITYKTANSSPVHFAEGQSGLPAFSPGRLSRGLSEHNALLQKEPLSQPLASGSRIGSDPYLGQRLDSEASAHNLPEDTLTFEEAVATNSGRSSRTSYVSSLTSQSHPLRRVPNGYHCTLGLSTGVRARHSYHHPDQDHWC
Sequence (P54290 25-944 partner limits assumed): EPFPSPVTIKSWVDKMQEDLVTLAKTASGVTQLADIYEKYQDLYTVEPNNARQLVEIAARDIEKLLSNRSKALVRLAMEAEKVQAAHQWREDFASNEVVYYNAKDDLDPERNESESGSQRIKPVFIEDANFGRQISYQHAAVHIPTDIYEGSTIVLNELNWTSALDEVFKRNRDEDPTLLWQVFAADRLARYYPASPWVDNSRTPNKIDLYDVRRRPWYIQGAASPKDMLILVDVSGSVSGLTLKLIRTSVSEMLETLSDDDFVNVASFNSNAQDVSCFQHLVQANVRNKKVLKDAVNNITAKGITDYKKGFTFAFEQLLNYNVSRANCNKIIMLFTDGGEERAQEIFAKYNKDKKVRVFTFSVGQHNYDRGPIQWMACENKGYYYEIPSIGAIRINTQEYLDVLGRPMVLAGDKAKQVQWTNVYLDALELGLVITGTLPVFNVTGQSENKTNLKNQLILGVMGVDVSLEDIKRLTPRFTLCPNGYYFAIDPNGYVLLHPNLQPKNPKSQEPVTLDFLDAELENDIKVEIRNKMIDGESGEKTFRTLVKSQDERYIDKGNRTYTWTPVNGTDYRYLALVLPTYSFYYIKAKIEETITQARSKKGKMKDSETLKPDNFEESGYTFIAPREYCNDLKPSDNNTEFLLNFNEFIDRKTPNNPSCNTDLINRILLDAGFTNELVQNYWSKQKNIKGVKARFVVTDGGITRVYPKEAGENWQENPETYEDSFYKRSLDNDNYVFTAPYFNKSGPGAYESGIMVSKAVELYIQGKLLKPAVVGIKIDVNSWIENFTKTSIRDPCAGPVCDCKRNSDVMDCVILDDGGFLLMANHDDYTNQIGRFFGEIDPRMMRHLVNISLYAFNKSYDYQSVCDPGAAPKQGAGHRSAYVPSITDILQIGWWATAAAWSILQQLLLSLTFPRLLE
Sequence (P54290 945-1091 partner limits assumed): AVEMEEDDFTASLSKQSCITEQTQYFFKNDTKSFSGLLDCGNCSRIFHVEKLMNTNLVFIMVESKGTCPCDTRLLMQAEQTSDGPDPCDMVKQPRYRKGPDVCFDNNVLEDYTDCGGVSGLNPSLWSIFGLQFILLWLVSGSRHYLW
Sequence (P54283 whole entry partner): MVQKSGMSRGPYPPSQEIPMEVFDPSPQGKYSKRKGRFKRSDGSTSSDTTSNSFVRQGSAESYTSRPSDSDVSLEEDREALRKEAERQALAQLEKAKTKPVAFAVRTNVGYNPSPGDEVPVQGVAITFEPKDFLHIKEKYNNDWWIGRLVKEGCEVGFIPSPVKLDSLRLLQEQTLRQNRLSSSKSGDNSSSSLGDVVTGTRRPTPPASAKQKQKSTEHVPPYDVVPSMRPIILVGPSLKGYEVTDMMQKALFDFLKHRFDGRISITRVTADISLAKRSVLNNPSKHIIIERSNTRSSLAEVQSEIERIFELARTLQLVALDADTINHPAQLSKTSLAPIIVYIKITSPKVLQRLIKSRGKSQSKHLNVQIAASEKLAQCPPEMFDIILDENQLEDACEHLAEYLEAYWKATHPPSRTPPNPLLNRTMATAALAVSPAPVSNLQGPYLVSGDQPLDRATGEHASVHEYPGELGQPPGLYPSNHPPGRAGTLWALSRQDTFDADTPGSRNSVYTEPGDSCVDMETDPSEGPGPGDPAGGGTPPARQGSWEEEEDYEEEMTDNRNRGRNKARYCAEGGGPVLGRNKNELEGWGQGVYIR
metric-name: Inactivated Block (shift in V0.5)

CCCCCCCCCCCCN [dodecylamine] : ~ 10 mV
CCCCCCCCCCN [decylamine] : ~ 10 mV
COC(=O)C=C(C)CCC=C(C)CCC1OC1(C)C (centres unmarked) [juvenile hormone III] : ~ 10 mV
CC(C)=CCCC(C)=CCCC(C)=CCO [farnesol] : 10-25 mV
CC(C)=CCCC(C)=CCCC(C)=CCBr [farnesyl bromide] : ~ 20 mV
CCCCCCCCCCCC [dodecane] : ~ 10 mV
CC(=O)OCC=C(C)CCC=C(C)CCC=C(C)C [farnesyl acetate] : ~ 20 mV
CC(C)CCCC(C)CCCC(C)CCCC(C)C (centres unmarked) : ~ 10 mV
